Attribution: PubChem BioAssay

Recorded percent of DMSO control GFP for the following molecules
Test: rapamycin-like changes in RPL19A-GFP expression – cell-based, S. cerevisiae, multiplex flow cytometry, primary screen (AID 1862);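 also: lower values mimic rapamycin by blocking the RPL19A rise seen in DMSO cells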
Details: S. cerevisiae RPL19A-GFP strain, flow cytometry fluorescence, 3 h; at 10 µM; stronger effect = lower value
Records with an inconclusive call do not appear.

molecule: Cc1ccccc1C(=O)Nc1ccccc1C(=O)NCC(C)C
percent of DMSO control GFP, %: 100
--
molecule: CCN(CCCc1ccccc1)CCCc1ccccc1
percent of DMSO control GFP, %: 100
--
molecule: CCOc1ncnc2c1[nH]c1ccccc12
percent of DMSO control GFP, %: 99.7
--
molecule: COc1cc(C(=O)Nc2ccc(N(C)C)cc2)c([N+](=O)[O-])cc1OC
percent of DMSO control GFP, %: 100
--
molecule: CC(NC(=O)c1ccc(N2CCNCC2)c([N+](=O)[O-])c1)C12CC3CC(CC(C3)C1)C2 (stereo unspecified)
percent of DMSO control GFP, %: 92.8
--
molecule: COc1cc(C(=O)NCCc2c[nH]c3ccccc23)ccc1OCc1c(C)noc1C
percent of DMSO control GFP, %: 96.7
--
molecule: COc1ccccc1NC(=O)Cn1c(C)cc(=O)c2cccc(OC)c21
percent of DMSO control GFP, %: 102
--
molecule: COc1ccc(C(=O)Nc2cccnc2)cc1C(=O)Nc1cccnc1
percent of DMSO control GFP, %: 104
--
molecule: O=C(c1ccco1)N1CCCN(Cc2nc(-c3ccc4c(c3)OCO4)no2)CC1
percent of DMSO control GFP, %: 104
--
molecule: COc1cc2c(cc1OC)-c1cc(NC3CCCCCC3)nc(=O)n1CC2
percent of DMSO control GFP, %: 100
--
molecule: COCCn1c(SCCOc2ccccc2)nc2ccccc2c1=O
percent of DMSO control GFP, %: 99.8

====

Biological target: Regulator of G-protein signaling 16 (Homo sapiens)
Test: small molecules altering RGS protein interactions with GNAO1 – biochemical, multiplexed beads, flow cytometry, RGS4/7/8/16/19, primary screen (AID 1504);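 also: fluorescently labeled Galpha-o bound to GDP with aluminium fluoride binding biotinylated RGS beads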
Settings: multiplexed bead flow cytometry, measured here: RGS16 interaction, at 10 µM
Some of the results follow.
Quick rule for you: RGS16–Galpha-o binding response under 20% gets Criterion met, anything else gets Criterion not met.

molecule: O=C(NC1CC1)c1ccc2c(c1)NC(=O)c1ccccc1S2
answer.label: Criterion not met

molecule: COc1ccccc1-n1c(-c2cc(-c3ccco3)[nH]n2)n[nH]c1=S
answer.label: Criterion met

molecule: CCOC(=O)C1=C(c2ccccc2)N=C2SCC(=O)N2C1c1ccc(O)c(OC)c1 (stereo not given)
answer.label: Criterion not met

molecule: Cc1ccc(C)c(OCC(=O)N2CCN(C(=O)c3ccco3)CC2)c1
answer.label: Criterion not met

molecule: CC1(C)C=C2[C@H]3CC[C@@H]4[C@@]5(C)CCC(=O)C(C)(C)[C@@H]5CC[C@@]4(C)[C@]3(C)CC[C@@]2(C(=O)O)CC1
answer.label: Criterion not met

====

Target: Cell division control protein 42 homolog (Homo sapiens)
Experiment: inhibition of fluorescent GTP binding to wildtype Cdc42 – biochemical, multiplex bead flow cytometry, Bodipy-FL-GTP, dose response (AID 1334)
Conditions: bead-based flow cytometry, Bodipy-FL-GTP binding to GST-Cdc42; at 100 µM (top of the series) unless noted
Results with a measured potency or affinity are listed apart.
measure.name: fluorescence, percent of control (lower = inhibition) (%)

structure: COCCN1C(=O)/C(=C/c2ccc(N3CCCC3)cc2)SC1=S
result.unit: %
quantitative.readout: 64.2
--
structure: O=C(Nn1cc(C(=O)N2CCN(c3ccccc3F)CC2)c2ccccc2c1=O)c1cnccn1
result.unit: %
quantitative.readout: 98.6
--
structure: CCOc1ccccc1C(=O)Nc1cccc(-c2ccc3nncn3n2)c1
result.unit: %
quantitative.readout: 33.5
--
structure: CCOC(=O)C1(Cc2cccc(F)c2)CCN(Cc2nc(CC)[nH]c2C)CC1
result.unit: %
quantitative.readout: 48.2
--
structure: O=C(O)/C=C\C(=O)Nc1cccc(C(=O)Nc2cccc(O)c2)c1
result.unit: %
quantitative.readout: 38.6
--
structure: CSc1nc2ccc(NS(=O)(=O)c3c(Cl)cccc3Cl)cc2s1
result.unit: %
quantitative.readout: 31.2
